diameter of the inhibition zone (DIZ) values for the compounds below.
# Test system: Pseudomonas aeruginosa
# protocol-summary: Antibacterial activity against Pseudomonas aeruginosa ATCC 10145 assessed as diamater of growth inhibition zone after 24 hr by agar cup diffusion method; also: test concentration or dose not given here
# Assay type: functional
measured-endpoint: diameter of the inhibition zone (DIZ) (mm)

INSERT INTO measurements (structure_as_smiles, measured_endpoint, unit_name, result_number) VALUES
  ('COc1ccc(/C=N/N=c2\scc(C3=CC(=O)C=CC3=O)n2-c2ccc(C)cc2)cc1O', 'diameter of the inhibition zone (DIZ)', 'mm', 14),
  ('COc1ccc(OC)c(/C=N/N=c2\scc(-c3cc(O)ccc3O)n2-c2ccc(Cl)cc2)c1', 'diameter of the inhibition zone (DIZ)', 'mm', 16),
  ('COc1cc(/C=N/N=c2\scc(C3=CC(=O)C=CC3=O)n2-c2ccc(Cl)cc2)ccc1O', 'diameter of the inhibition zone (DIZ)', 'mm', 15),
  ('COc1ccc(/C=N/N=c2\scc(-c3cc(O)ccc3O)n2-c2ccc(Cl)cc2)cc1', 'diameter of the inhibition zone (DIZ)', 'mm', 12),
  ('COc1cc(/C=N/N=c2\scc(C3=CC(=O)C=CC3=O)n2-c2ccc(C)cc2)ccc1O', 'diameter of the inhibition zone (DIZ)', 'mm', 15),
  ('COc1ccc(OC)c(/C=N/N=c2\scc(-c3cc(O)ccc3O)n2-c2ccc(C)cc2)c1', 'diameter of the inhibition zone (DIZ)', 'mm', 14),
  ('COc1ccc(/C=N/N=c2\scc(C3=CC(=O)C=CC3=O)n2-c2ccc(C)cc2)cc1', 'diameter of the inhibition zone (DIZ)', 'mm', 15),
  ('COc1ccc(OC)c(/C=N/N=c2\scc(C3=CC(=O)C=CC3=O)n2-c2ccccc2)c1', 'diameter of the inhibition zone (DIZ)', 'mm', 14),
  ('COc1ccc(/C=N/N=c2\scc(-c3cc(O)ccc3O)n2-c2ccccc2)cc1', 'diameter of the inhibition zone (DIZ)', 'mm', 14);

----------
# Test system: Staphylococcus aureus
# protocol-summary: Antibacterial activity against Staphylococcus aureus DSM 1104 assessed as diamater of growth inhibition zone after 24 hr by agar cup diffusion method; also: test concentration or dose not given here
# Type: functional
diameter of the inhibition zone (DIZ) values for the compounds below.
measured-endpoint: diameter of the inhibition zone (DIZ) (mm)

INSERT INTO assay_data (structure_as_smiles, measured_endpoint, unit_name, result_number) VALUES
  ('COc1cc(/C=N/N=c2\scc(C3=CC(=O)C=CC3=O)n2-c2ccc(C)cc2)ccc1O', 'diameter of the inhibition zone (DIZ)', 'mm', 14),
  ('COc1ccc(OC)c(/C=N/N=c2\scc(-c3cc(O)ccc3O)n2-c2ccc(C)cc2)c1', 'diameter of the inhibition zone (DIZ)', 'mm', 14),
  ('COc1ccc(/C=N/N=c2\scc(-c3cc(O)ccc3O)n2-c2ccc(C)cc2)cc1O', 'diameter of the inhibition zone (DIZ)', 'mm', 16),
  ('COc1cc(/C=N/N=c2\scc(-c3cc(O)ccc3O)n2-c2ccc(Cl)cc2)ccc1O', 'diameter of the inhibition zone (DIZ)', 'mm', 16),
  ('COc1ccc(OC)c(/C=N/N=c2\scc(C3=CC(=O)C=CC3=O)n2-c2ccc(C)cc2)c1', 'diameter of the inhibition zone (DIZ)', 'mm', 16),
  ('COc1ccc(OC)c(/C=N/N=c2\scc(-c3cc(O)ccc3O)n2-c2ccccc2)c1', 'diameter of the inhibition zone (DIZ)', 'mm', 16);
